TARGET UNDER TEST: UniProt:Q9NRG4
Sequence (Q9NRG4 whole entry): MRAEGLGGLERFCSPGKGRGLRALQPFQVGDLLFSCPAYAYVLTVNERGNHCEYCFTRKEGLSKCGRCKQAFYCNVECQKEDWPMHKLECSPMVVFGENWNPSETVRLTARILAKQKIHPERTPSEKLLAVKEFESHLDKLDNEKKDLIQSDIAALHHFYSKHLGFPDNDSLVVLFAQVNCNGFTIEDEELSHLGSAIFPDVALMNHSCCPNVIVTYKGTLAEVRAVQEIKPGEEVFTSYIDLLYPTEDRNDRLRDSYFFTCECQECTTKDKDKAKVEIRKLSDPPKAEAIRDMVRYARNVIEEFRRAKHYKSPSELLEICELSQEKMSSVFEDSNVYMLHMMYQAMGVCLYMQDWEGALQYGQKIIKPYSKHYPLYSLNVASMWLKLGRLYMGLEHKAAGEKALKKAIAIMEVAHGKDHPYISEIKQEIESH
EXPERIMENT NOTES: SMYD2 biochemical assay (SMYD2 enzyme assay on peptide substrate, 3H-SAM Flashplate)
MEASUREMENT SETUP: read-out: SMYD2 Biochem IC50; IC50 values are an average of n = 1 to n = 50
RESULT TYPE: IC50 (µM)

Use the examples below as a reference point.
{"columns": ["COMPOUND", "TARGET UNDER TEST", "IC50, µM"],
 "data": [
  ["CC(c1cccc(OCCN)c1Cl)N1CC(NC(=O)c2cn(C3CC3)nn2)C1 (stereo not shown) [compound 1009]", "UniProt:Q9NRG4", 5.7],
  ["O=C(NC1CN(Cc2ccc(Cn3cccn3)cc2)C1)c1cc(C2CC2)cnn1 [compound 954]", "UniProt:Q9NRG4", 2.4],
  ["CC(NC(=O)c1cc(C2CC2)cnn1)C1CN(C(C)C)C1 (stereo not shown) [compound 840]", "UniProt:Q9NRG4", 36.8],
  ["Cn1cc(COc2ccc(CN3CC(NC(=O)c4cc(C5CC5)cnn4)C3)cc2)cn1 [compound 928]", "UniProt:Q9NRG4", 0.61],
  ["CC(c1ccc(CNc2ccccc2)cc1)N1CC(NC(=O)c2cn(C3CC3)nn2)C1 (stereo not shown) [compound 922]", "UniProt:Q9NRG4", 0.65]
]}

1: Cc1ccc(Cn2cc(CN3CC(NC(=O)c4cn(C5CC5)nn4)C3)cn2)cc1 [compound 993]
2: COc1ccc(C(C)N2CC(NC(=O)c3cc(C4CC4)cnn3)C2)cc1 (stereo not shown) [compound 856]
3: CNCCOc1cccc(C(C)N2CC(NC(=O)c3cn(C4CC4)nn3)C2)c1Cl (stereo not shown) [compound 975]
4: O=C(NC1CN(Cc2ccccc2)C1)c1cn(C2CC2)nn1 [compound 672]
5: CC(C)(c1ccc(OCc2ccccc2)cc1)N1CC(NC(=O)c2cn(C3CC3)nn2)C1 [compound 980]
Ordering: ascending IC50. Submit the labels in the order that the ranking request calls for.
1, 2, 5, 4, 3
